- Test system: MCF7
- procedure.text: NCI tumour cell line growth inhibition, 48 h
The source made the active and inactive calls. Rule as the data show it: active = GI50 up to about 1.1 µM and inactive = higher.
Reported values of GI50 for individual entries
property.measured: GI50

>>> recorded_value("C/C(=N\\Nc1nc2cccnc2s1)c1ccccn1")
"0.0136 µM (active)"
>>> recorded_value("CN(C)[C@@H]1C(O)=C(C(=O)NCNc2nc3[nH]nnc3c(=O)[nH]2)C(=O)[C@@]2(O)C(O)=C3C(=O)c4c(O)cccc4[C@@](C)(O)[C@H]3C[C@@H]12")
"66.1 µM (inactive)"
>>> recorded_value("Nc1nc(N)c(CCCCc2ccc([N+](=O)[O-])cc2)c(N)n1")
"> 100 µM (inactive)"

* * *

Collected GI50 values appear next to each entry.
- Tested on: HOP-92
- procedure.text: NCI tumour cell line growth inhibition, 48 h
Calls of active or inactive are those of the source. Rule as the data show it: active = GI50 up to about 1.1 µM and inactive = higher.
property.measured: GI50

>>> recorded_value("CC1(C)COCN1COC1CCCCC1")
"> 100 µM (inactive)"
>>> recorded_value("O=C(O)c1[nH]c(C(=O)O)c(CC(F)(F)C(F)(F)C(F)(F)F)c1CC(F)(F)C(F)(F)C(F)(F)F")
"39.9 µM (inactive)"
>>> recorded_value("CC[C@@]1(O)C(=O)OCc2c1cc1n(c2=O)Cc2c-1nc1ccccc1c2/C=N/NC(=O)C[N+](C)(C)C")
"3.68 µM (inactive)"
>>> recorded_value("COc1cc(OC)c(-c2oc3ccccc3c(=O)c2O)c(OC)c1")
"8.17 µM (inactive)"
>>> recorded_value("O=Nn1c2ccccc2c2cc([N+](=O)[O-])ccc21")
"14.3 µM (inactive)"
>>> recorded_value("CCOC(=O)C=C1CCN(C(=O)c2ccccc2)CC1")
"> 100 µM (inactive)"
>>> recorded_value("CCOC(=O)C1=CN(Cc2ccccc2)C2ON=C(c3ccc(Cl)cc3)C2C1 (stereo not drawn)")
"18.8 µM (inactive)"
>>> recorded_value("Cc1ccc(-c2n[nH]c(=O)n2/N=C\\c2ccc([N+](=O)[O-])cc2)cc1")
"> 74.3 µM (inactive)"
>>> recorded_value("COc1ccc([C@H]2c3cc4c(cc3OC(O)(CO)[C@H]2C(=O)O)OCO4)c(OC)c1.COc1ccc([C@H]2c3cc4c(cc3OC3(O)COC(=O)[C@@H]23)OCO4)c(OC)c1 (stereo partly drawn)")
"> 100 µM (inactive)"
>>> recorded_value("CNC(=O)OCC1=C(COC(=O)NC)CN(c2ccc(OC)cc2)C1")
"> 100 µM (inactive)"
>>> recorded_value("O=C(Cc1ccccc1CCO)NCCc1ccccc1")
"> 100 µM (inactive)"
>>> recorded_value("CCOC(=O)c1cn2c(n1)sc1cc(C)c(C)cc12")
"25.4 µM (inactive)"
>>> recorded_value("Brc1ccc2c(-c3csc(-c4c[nH]c5ccccc45)n3)c[nH]c2c1")
"15.6 µM (inactive)"

* * *

- Tested on: T47D
- procedure.text: NCI tumour cell line growth inhibition, 48 h
The source made the active and inactive calls. Cut-off read from the data, not from the text of the source: active = GI50 up to about 1.1 µM and inactive = higher.
property.measured: GI50

>>> recorded_value("COc1ccc(-c2[nH]c(-c3ccc(OC)cc3)c(-c3ccccn3)c2-c2ccccn2)cc1")
"31.5 µM (inactive)"
>>> recorded_value("CN(/N=C/c1ccccn1)C1=NCCN1")
"> 100 µM (inactive)"
>>> recorded_value("CCC(=C/[C@H](C)C/C=C/C(C)=C/[C@@H](C)C(=O)[C@@H](C)[C@H](O)[C@@H](C)CC)/C=C/[C@H]1CC=CC(=O)O1")
"< 0.0012 µM (active)"
>>> recorded_value("COc1ccc2c(c1OC)C(=O)N/C2=C\\c1c(CCN(C)C)cc2c(c1OC)OCO2")
"27.9 µM (inactive)"
>>> recorded_value("C/C=C1\\CC(C(=O)OCC)CCCCCCCCCCC1=O (stereo unspecified)")
"26.7 µM (inactive)"
>>> recorded_value("COc1ccc(/C=N\\N(C)Cc2cccc3ccsc23)cc1")
"> 100 µM (inactive)"
